Target: recombinant human VAP-1 (Homo sapiens, UniProt Q16853)
Construct: purchased R&D systems
Sequence (Q16853 whole entry): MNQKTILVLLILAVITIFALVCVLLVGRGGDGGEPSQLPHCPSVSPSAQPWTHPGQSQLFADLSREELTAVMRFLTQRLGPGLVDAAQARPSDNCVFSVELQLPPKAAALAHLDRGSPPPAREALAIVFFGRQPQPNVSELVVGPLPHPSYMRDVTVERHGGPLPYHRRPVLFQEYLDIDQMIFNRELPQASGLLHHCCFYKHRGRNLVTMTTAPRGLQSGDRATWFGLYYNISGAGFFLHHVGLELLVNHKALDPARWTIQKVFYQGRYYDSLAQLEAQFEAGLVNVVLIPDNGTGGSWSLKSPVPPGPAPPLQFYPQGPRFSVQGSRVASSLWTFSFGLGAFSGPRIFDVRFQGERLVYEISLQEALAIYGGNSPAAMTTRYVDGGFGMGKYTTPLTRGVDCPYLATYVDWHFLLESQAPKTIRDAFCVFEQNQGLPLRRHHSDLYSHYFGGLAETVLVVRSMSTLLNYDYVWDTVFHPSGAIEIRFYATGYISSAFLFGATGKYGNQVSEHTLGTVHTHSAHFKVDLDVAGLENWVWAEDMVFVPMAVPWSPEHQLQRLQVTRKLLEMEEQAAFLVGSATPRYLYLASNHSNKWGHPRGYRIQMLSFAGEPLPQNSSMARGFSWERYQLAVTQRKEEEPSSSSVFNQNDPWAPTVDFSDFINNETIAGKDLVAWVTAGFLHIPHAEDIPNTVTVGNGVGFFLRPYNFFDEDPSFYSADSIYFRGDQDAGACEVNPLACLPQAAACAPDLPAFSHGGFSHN
Assay: Activity on recombinant human VAP-1, HRP-coupled Amplex Red hydrogen peroxide assay
Type: biochemical
Conditions: substrate 1 mM benzylamine; compound incubated with enzyme at 37° C. for 30 minutes; pH 7.4; read-out: Inhibitory Activity (IC50, nM) human VAP-1
Structures can show the parent of a compound that is named as a salt.
Threshold-based label: IC50 under 0.5 nM gives true, IC50 not under 0.5 nM gives false.

Worked set:
- Compound: "CC(C)(C)NS(=O)(=O)c1cncc(-c2ccc(Cn3cnn(C/C(=C/F)CN)c3=O)s2)c1 [Example 186]"
  Label: "false"
- Compound: "NC/C(=C\\F)Cn1ncn(Cc2ccc(-c3ccc(OC(F)F)cc3)s2)c1=O [Example 170]"
  Label: "false"
- Compound: "NC/C(=C\\F)Cn1ncn(Cc2ccc(-c3ccc4c(c3)C(=O)NCC4)s2)c1=O [Example 74, hydrochloride]"
  Label: "true"

Now take the following compound into account.
Query :: Confirm or reject: IC50 of NC/C(=C\F)Cn1ncn(Cc2ccc(-c3ccc4ocnc4c3)s2)c1=O [Example 62, hydrochloride] lies strictly below 0.5 nM
Result :: false

----------
Would you mind telling me the reported IC50 of each entry?
Biological target: recombinant human VAP-1 (Homo sapiens)
Construct: purchased R&D systems
Experiment: Activity on recombinant human VAP-1, HRP-coupled Amplex Red hydrogen peroxide assay
Format: biochemical
Conditions: substrate 1 mM benzylamine; compound incubated with enzyme at 37° C. for 30 minutes; pH 7.4; read-out: Inhibitory Activity (IC50, nM) human VAP-1
Structures can show the parent of a compound that is named as a salt.
Answers are plain numbers, in nM.

See these solved cases before continuing.
- Compound: "CN(C)C(=O)c1cccc(-c2ccc(Cn3cnn(C/C(=C/F)CN)c3=O)s2)c1"
  IC50, nM: 3.7
- Compound: "CS(=O)(=O)CCn1cc(-c2ccc(Cn3cnn(C/C(=C/F)CN)c3=O)s2)ccc1=O"
  IC50, nM: 4.2
- Compound: "NC/C(=C\\F)Cn1ncn(Cc2ccc(Br)s2)c1=O [Example 2, hydrochloride]"
  IC50, nM: 5.2
- Compound: "COc1cc(-c2ccc(Cn3cnn(C/C(=C/F)CN)c3=O)s2)cc(OC)c1OC [Example 17, hydrochloride]"
  IC50, nM: 1.2
- Compound: "NC/C(=C\\F)Cn1ncn(Cc2ccc(-c3cc4c(cc3F)NC(=O)CC4)s2)c1=O"
  IC50, nM: 0.4

Please state IC50 for every compound in the list that follows.
1. CC(=O)Nc1cc(-c2ccc(Cn3cnn(C/C(=C\F)CN)c3=O)s2)ccn1 [Example 41, hydrochloride]
2. NC/C(=C/F)Cn1ncn(Cc2ccc(-c3ccc(N4CCOCC4)nc3)s2)c1=O [Example 51, hydrochloride]
3. NC/C(=C\F)Cn1ncn(Cc2ccc(-c3ccc4nsnc4c3)s2)c1=O

Result ::
1: 1.3; 2: 0.75; 3: 1

Please state IC50 for every compound in the list that follows.
1. COCCOc1ccc(-c2ccc(Cn3cnn(C/C(=C/F)CN)c3=O)s2)cc1 [Example 19, hydrochloride]
2. NC/C(=C\F)Cn1ncn(Cc2ccc(-c3ccnnc3)s2)c1=O
3. Cn1cc(-c2ccc(Cn3cnn(C/C(=C/F)CN)c3=O)s2)ccc1=O
4. NC/C(=C\F)Cn1ncn(Cc2ccc(-c3ccc(C(=O)N4CCOCC4)cc3)s2)c1=O [Example 27, hydrochloride]
5. NC/C(=C\F)Cn1ncn(Cc2ccc(/C=C/c3cnc4c(c3)NC(=O)CO4)s2)c1=O [Example 124, hydrochloride]

Result ::
4.6
3.6
1.3
1.1
0.1

Please state IC50 for every compound in the list that follows.
1. CS(=O)(=O)Nc1ccc(-c2ccc(Cn3cnn(C/C(=C/F)CN)c3=O)s2)cc1 [Example 7, hydrochloride]
2. Cn1c(-c2ccc(Cn3cnn(C/C(=C/F)CN)c3=O)s2)cnc1Cl
3. CC1(C)Oc2ccc(-c3ccc(Cn4cnn(C/C(=C/F)CN)c4=O)s3)cc2NC1=O
4. CN(C)c1ccc(-c2ccc3sc(Cn4cnn(C/C(=C/F)CN)c4=O)cc3c2)cn1
5. NC/C(=C\F)Cn1ncn(Cc2ccc(-c3ccc(OCC(F)(F)F)nc3)s2)c1=O [Example 47, hydrochloride]

Result ::
0.4
4.4
0.4
2.3
4.7

Please state IC50 for every compound in the list that follows.
1. CNC(=O)c1ccc(-c2ccc(Cn3cnn(C/C(=C/F)CN)c3=O)s2)cc1
2. NC/C(=C\F)Cn1ncn(Cc2ccc(-c3ccc4c(c3Cl)NC(=O)CO4)s2)c1=O [Example 95, hydrochloride]
3. NC/C(=C\F)Cn1ncn(Cc2ccc(-c3ccc(CN4CCOCC4)nc3)s2)c1=O
4. Cc1cc(-c2ccc(Cn3cnn(C/C(=C/F)CN)c3=O)s2)cc2c1NC(=O)CC2 [Example 77, hydrochloride]

Result ::
1.5
0.25
4.4
0.2

All values here come from patent US11780830B2.
